The measured values listed here are drawn from ChEMBL document CHEMBL1201862.

Tested on: HOP-62
experimental.details: NCI tumour cell line growth inhibition, 48 h
Activity calls are given as the source filed them. No stated cut-off is given here; in the data, active = GI50 up to about 1.1 µM and inactive = higher.
Catalogue of GI50 readings, one per entry.

Task item: Give the measured GI50 of ClCc1nc2ccccc2[nH]1 .
Reply: > 100 µM (inactive)

Task item: Try this compound next: N[C@@H](CSCSC[C@H](N)C(=O)O)C(=O)O
Reply: > 225 µM (inactive)

----------
Test system: MDA-MB-231
experimental.details: NCI tumour cell line growth inhibition, 48 h
Activity calls are given as the source filed them. Cut-off read from the data, not from the text of the source: active = GI50 up to about 1.1 µM and inactive = higher.
property.label: GI50

Use the examples below as a reference point.
S=C1SC(=N\c2ccccc2)/C(=N/c2ccccc2)N1c1ccccc1 = > 100 µM (inactive)
CC(CO)[C@H]1OC(=O)C=C2[C@@]13O[C@@H]3[C@H]1OC(=O)[C@@]3(C)[C@H]4O[C@H]4C[C@@]2(C)[C@@H]13 (stereo partly specified) = 2.51 µM (inactive)
CN(C)CC1CCC(CN(C)C)C(=O)C1=O (stereo unspecified) = 6.22 µM (inactive)
O=C(c1ccccc1)c1ccc(COc2ccc(C(c3c(O)c4ccccc4oc3=O)c3c(O)c4ccccc4oc3=O)cc2)cc1 = 34.3 µM (inactive)
COC(=O)N1C2C(C[C@@]1(C)C(=O)OC)c1ccccc1N2S(=O)(=O)c1ccccc1 (stereo partly specified) = > 100 µM (inactive)

Consider the additional compound presented here.
Task item: Give the measured GI50 of N#Cc1ccccc1NC(=O)/C(=N\NC(=O)c1ccncc1)C(c1cnc2ccc([N+](=O)[O-])cc2n1)[N+](=O)[O-] (stereo unspecified) .
Reply: > 100 µM (inactive)
